assay name: Metabolic stability in human liver microsomes assessed as parent compound remaining at 0.5 uM after 10 mins in presence of NADPH by LC-MS/MS analysis
Provide the recorded remaining at 10 min, 0.5 µM for the entries that follow.

As a guide, the following entries are already answered.
Exercise: Please give the documented remaining at 10 min, 0.5 µM of `NCc1ccccc1CN(C[C@H]1Cc2ccccc2CN1)[C@H]1CCCc2cccnc21`
Solution: 50.5%

Exercise: Please give the documented remaining at 10 min, 0.5 µM of `CC1(C)CCC(NC/C=C/CN(C[C@H]2Cc3ccccc3CN2)[C@H]2CCCc3cccnc32)CC1`
Solution: 42%

Exercise: Please give the documented remaining at 10 min, 0.5 µM of `C(=C\CN(C[C@H]1Cc2ccccc2CN1)[C@H]1CCCc2cccnc21)/CNCC1CCOCC1`
Solution: 74.5%

Batch request: remaining at 10 min, 0.5 µM per item, same order as input.
1. c1ccc2c(c1)CN[C@@H](CN(CCCCNC1CCOCC1)[C@H]1CCCc3cccnc31)C2
2. c1ccc2c(c1)CN[C@@H](CN(CCCCNCC1CCOCC1)[C@H]1CCCc3cccnc31)C2

Solution:
53%
57.6%

Batch request: remaining at 10 min, 0.5 µM per item, same order as input.
1. c1ccc2c(c1)CN[C@@H](CN(CCCCNC1CCNCC1)[C@H]1CCCc3cccnc31)C2
2. C(=C\CN(C[C@H]1Cc2ccccc2CN1)[C@H]1CCCc2cccnc21)/CNC1CCOCC1

Solution:
100%
69.9%

====

measured on: C-X-C chemokine receptor type 4 (Homo sapiens)
assay name: Antagonist activity at human CXCR4 in CCRF-CEM cells assessed as decrease in SDF-1alpha stimulated Ca2+ flux preincubated for 25 mins followed by SDF-1alpha addition measured for 90 secs by calcium dye-based fluorescence assay
pIC50: −log10 of the molar value.
Each entry gets -1 if its pIC50 stays under 7, and 1 if its pIC50 is 7 or above.

Exercise: Kindly determine if pIC50 recorded for `CC(C)(CCN(C[C@H]1Cc2ccccc2CN1)[C@H]1CCCc2cccnc21)CNC1CCOCC1` is above or exactly 7.
Solution: 1

Continuing:
Exercise: Kindly determine if pIC50 recorded for `c1ccc2c(c1)CN[C@@H](CN(CCCCNCc1ccncc1)[C@H]1CCCc3cccnc31)C2` is above or exactly 7.
Solution: 1

Exercise: Kindly determine if pIC50 recorded for `O=S1(=O)CCC(CNCCCCN(C[C@H]2Cc3ccccc3CN2)[C@H]2CCCc3cccnc32)CC1` is above or exactly 7.
Solution: 1

====

measured on: Cytochrome P450 2D6 (Homo sapiens, UniProt P10635)
Sequence (P10635 whole entry): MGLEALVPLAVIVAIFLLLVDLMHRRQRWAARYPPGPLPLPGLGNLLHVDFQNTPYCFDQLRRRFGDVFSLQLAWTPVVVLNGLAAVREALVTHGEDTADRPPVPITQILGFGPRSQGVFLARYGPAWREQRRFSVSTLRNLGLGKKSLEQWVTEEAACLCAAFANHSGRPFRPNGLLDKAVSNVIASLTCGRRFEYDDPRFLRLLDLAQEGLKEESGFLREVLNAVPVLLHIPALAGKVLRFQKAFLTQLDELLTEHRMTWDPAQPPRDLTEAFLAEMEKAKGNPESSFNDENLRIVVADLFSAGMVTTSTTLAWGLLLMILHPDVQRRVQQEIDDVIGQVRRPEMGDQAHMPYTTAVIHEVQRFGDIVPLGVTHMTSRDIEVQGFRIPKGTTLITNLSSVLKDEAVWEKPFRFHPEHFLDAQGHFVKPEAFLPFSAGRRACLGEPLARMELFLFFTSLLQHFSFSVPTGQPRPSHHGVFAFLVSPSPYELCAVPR
assay name: Inhibition of recombinant human CYP2D6 expressed in microsomes of insect cells using AMMC as substrate preincubated for 30 mins followed by NADP addition after 45 mins by fluorescence analysis
pIC50: −log10 of the molar value.
Each entry gets label 0 if its pIC50 stays under 6, and label 1 if its pIC50 is 6 or above.

Solved cases (10 shown):
Exercise: Kindly determine if pIC50 recorded for `c1ccc2c(c1)CN[C@@H](CN(Cc1ccc(CNC3CCOCC3)cc1)[C@H]1CCCc3cccnc31)C2` is above or exactly 6.
Solution: label 1

Exercise: Kindly determine if pIC50 recorded for `CC1(C)CCC(NCCCCN(C[C@H]2Cc3ccccc3CN2)[C@H]2CCCc3cccnc32)CC1` is above or exactly 6.
Solution: label 1

Exercise: Kindly determine if pIC50 recorded for `NCc1ccccc1CN(C[C@H]1Cc2ccccc2CN1)[C@H]1CCCc2cccnc21` is above or exactly 6.
Solution: label 1

Exercise: Kindly determine if pIC50 recorded for `c1ccc2c(c1)CN[C@@H](CN(CCCCNC1CCCCC1)[C@H]1CCCc3cccnc31)C2` is above or exactly 6.
Solution: label 1

Exercise: Kindly determine if pIC50 recorded for `c1ccc2c(c1)CN[C@@H](CN(CCCCNCC1CCOCC1)[C@H]1CCCc3cccnc31)C2` is above or exactly 6.
Solution: label 0

Exercise: Kindly determine if pIC50 recorded for `c1ccc2c(c1)CN[C@@H](CN(CCCCNCc1ccncc1)[C@H]1CCCc3cccnc31)C2` is above or exactly 6.
Solution: label 1

Exercise: Kindly determine if pIC50 recorded for `c1ccc2c(c1)CN[C@@H](CN(CCCCNCC1CCCCC1)[C@H]1CCCc3cccnc31)C2` is above or exactly 6.
Solution: label 1

Exercise: Kindly determine if pIC50 recorded for `C(=C\CN(C[C@H]1Cc2ccccc2CN1)[C@H]1CCCc2cccnc21)/CNCC1CCOCC1` is above or exactly 6.
Solution: label 0

Exercise: Kindly determine if pIC50 recorded for `c1ccc(CNCCCCN(C[C@H]2Cc3ccccc3CN2)[C@H]2CCCc3cccnc32)cc1` is above or exactly 6.
Solution: label 1

Exercise: Kindly determine if pIC50 recorded for `c1ccc2c(c1)CN[C@@H](CN(Cc1ccc(CNCc3ccncc3)cc1)[C@H]1CCCc3cccnc31)C2` is above or exactly 6.
Solution: label 1

Continuing:
Exercise: Kindly determine if pIC50 recorded for `c1ccc2c(c1)CN[C@@H](CN(CCCCNC1CCSCC1)[C@H]1CCCc3cccnc31)C2` is above or exactly 6.
Solution: label 1

Exercise: Kindly determine if pIC50 recorded for `c1ccc2c(c1)CN[C@@H](CN(CCCCNCC1CCSCC1)[C@H]1CCCc3cccnc31)C2` is above or exactly 6.
Solution: label 1

====

Provide the recorded Papp at 4 h, 100 µM for the entries that follow.
assay name: Permeability of the compound at pH 7.4 at 100 uM after 4 hrs by PAMPA
Numbers only, in ×10⁻⁶ cm/s.

Exercise: Please give the documented Papp at 4 h, 100 µM of `c1cncc(CN(CCCCN(C[C@H]2Cc3ccccc3CN2)[C@H]2CCCc3cccnc32)Cc2cccnc2)c1`
Solution: 43.5

Exercise: Please give the documented Papp at 4 h, 100 µM of `C(=C\CN(C[C@H]1Cc2ccccc2CN1)[C@H]1CCCc2cccnc21)/CNCC1CCOCC1`
Solution: 12.2

Exercise: Please give the documented Papp at 4 h, 100 µM of `CC1(C)CCC(NCC(C)(C)CCN(C[C@H]2Cc3ccccc3CN2)[C@H]2CCCc3cccnc32)CC1`
Solution: 2.8

Exercise: Please give the documented Papp at 4 h, 100 µM of `c1ccc2c(c1)CN[C@@H](CN(CCCCN(Cc1ccncc1)Cc1ccncc1)[C@H]1CCCc3cccnc31)C2`
Solution: 77.4

Batch request: Papp at 4 h, 100 µM per item, same order as input.
1. c1ccc2c(c1)CN[C@@H](CN(CCCCNC1CCSCC1)[C@H]1CCCc3cccnc31)C2
2. CC(C)(CCN)CN(C[C@H]1Cc2ccccc2CN1)[C@H]1CCCc2cccnc21
3. c1ccc2c(c1)CN[C@@H](CN(Cc1ccc(CNC3CCOCC3)cc1)[C@H]1CCCc3cccnc31)C2

Solution:
0.2
25.5
9.2

Batch request: Papp at 4 h, 100 µM per item, same order as input.
1. NC/C=C\CN(C[C@H]1Cc2ccccc2CN1)[C@H]1CCCc2cccnc21
2. C(=C\CN(C[C@H]1Cc2ccccc2CN1)[C@H]1CCCc2cccnc21)/CNC1CCOCC1
3. C(=C\CN(C[C@H]1Cc2ccccc2CN1)[C@H]1CCCc2cccnc21)/CNCc1cccnc1
4. c1ccc2c(c1)CN[C@@H](CN(Cc1ccc(CNCc3ccncc3)cc1)[C@H]1CCCc3cccnc31)C2

Solution:
1: 56.9; 2: 43.4; 3: 24.4; 4: 38.5

====

Provide the recorded IC50 for the entries that follow.
measured on: C-X-C chemokine receptor type 4 (Homo sapiens)
assay name: Antagonist activity at human CXCR4 in CCRF-CEM cells assessed as decrease in SDF-1alpha stimulated Ca2+ flux preincubated for 25 mins followed by SDF-1alpha addition measured for 90 secs by calcium dye-based fluorescence assay

Exercise: Please give the documented IC50 of `c1ccc(CN(CCCCN(C[C@H]2Cc3ccccc3CN2)[C@H]2CCCc3cccnc32)Cc2ccccc2)cc1`
Solution: > 16700 nM

Exercise: Please give the documented IC50 of `c1ccc2c(c1)CN[C@@H](CN(CCCCNCC1CCNCC1)[C@H]1CCCc3cccnc31)C2`
Solution: 36.5 nM

Consider now this further molecule.
Exercise: Please give the documented IC50 of `CC(C)(CCN(C[C@H]1Cc2ccccc2CN1)[C@H]1CCCc2cccnc21)CNCC1CCOCC1`
Solution: 43.8 nM

====

measured on: C-X-C chemokine receptor type 4 (Homo sapiens, UniProt P61073)
Sequence (P61073 whole entry): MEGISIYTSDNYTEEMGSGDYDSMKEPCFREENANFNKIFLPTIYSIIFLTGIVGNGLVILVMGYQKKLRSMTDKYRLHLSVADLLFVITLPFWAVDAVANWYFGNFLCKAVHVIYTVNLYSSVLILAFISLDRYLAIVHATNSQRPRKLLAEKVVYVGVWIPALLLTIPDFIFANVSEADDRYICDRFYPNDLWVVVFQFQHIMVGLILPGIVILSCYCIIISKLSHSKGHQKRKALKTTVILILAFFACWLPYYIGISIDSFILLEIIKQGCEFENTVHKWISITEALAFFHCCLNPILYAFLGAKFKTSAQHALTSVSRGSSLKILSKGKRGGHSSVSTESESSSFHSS
assay name: Antagonist activity at human CXCR4 in CCRF-CEM cells assessed as decrease in SDF-1alpha stimulated Ca2+ flux preincubated for 25 mins followed by SDF-1alpha addition measured for 90 secs by calcium dye-based fluorescence assay
Provide the recorded IC50 for the entries that follow.
One number for each entry, in nM.

As a guide, the following entries are already answered.
Exercise: Give IC50 for this entry on C-X-C chemokine receptor type 4 (Homo sapiens, UniProt P61073): `NC/C=C\CN(C[C@H]1Cc2ccccc2CN1)[C@H]1CCCc2cccnc21`
Solution: 9.26

Exercise: Give IC50 for this entry on C-X-C chemokine receptor type 4 (Homo sapiens, UniProt P61073): `CC1(C)CCC(NCCCCN(C[C@H]2Cc3ccccc3CN2)[C@H]2CCCc3cccnc32)CC1`
Solution: 77.6

Exercise: Give IC50 for this entry on C-X-C chemokine receptor type 4 (Homo sapiens, UniProt P61073): `NCc1ccccc1CN(C[C@H]1Cc2ccccc2CN1)[C@H]1CCCc2cccnc21`
Solution: 50.8

Exercise: Give IC50 for this entry on C-X-C chemokine receptor type 4 (Homo sapiens, UniProt P61073): `c1ccc2c(c1)CN[C@@H](CN(CCCCNC1CCOCC1)[C@H]1CCCc3cccnc31)C2`
Solution: 29.4

Exercise: Give IC50 for this entry on C-X-C chemokine receptor type 4 (Homo sapiens, UniProt P61073): `CC1(C)CCC(NCC(C)(C)CCN(C[C@H]2Cc3ccccc3CN2)[C@H]2CCCc3cccnc32)CC1`
Solution: 541

Batch request: IC50 per item, same order as input.
1. c1cncc(CN(CCCCN(C[C@H]2Cc3ccccc3CN2)[C@H]2CCCc3cccnc32)Cc2cccnc2)c1
2. c1ccc2c(c1)CN[C@@H](CN(CCCCNCC1CCOCC1)[C@H]1CCCc3cccnc31)C2

Solution:
1: 471; 2: 52.9

Batch request: IC50 per item, same order as input.
1. CC(C)(CCN(C[C@H]1Cc2ccccc2CN1)[C@H]1CCCc2cccnc21)CNC1CCC(F)(F)CC1
2. c1ccc(CNCCCCN(C[C@H]2Cc3ccccc3CN2)[C@H]2CCCc3cccnc32)cc1
3. c1ccc2c(c1)CN[C@@H](CN(CCCCN(Cc1ccncc1)Cc1ccncc1)[C@H]1CCCc3cccnc31)C2

Solution:
1. 168
2. 20.1
3. 832

Batch request: IC50 per item, same order as input.
1. c1ccc2c(c1)CN[C@@H](CN(CCCCNC1CCCCC1)[C@H]1CCCc3cccnc31)C2
2. c1ccc2c(c1)CN[C@@H](CN(CCCCNC1CCNCC1)[C@H]1CCCc3cccnc31)C2
3. c1ccc2c(c1)CN[C@@H](CN(CCCCNCC1CCSCC1)[C@H]1CCCc3cccnc31)C2

Solution:
75.2
63.4
69.6

Exercise: Give IC50 for this entry on C-X-C chemokine receptor type 4 (Homo sapiens, UniProt P61073): `c1ccc2c(c1)CN[C@@H](CN(CCCCNC1CCSCC1)[C@H]1CCCc3cccnc31)C2`
Solution: 54.7
